For each of the compounds below, state its cell number change.
test-method-notes: qHTS Assay for Lipid Storage Modulators in Drosophila S3 Cells;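 note: cells counted by Cell Tracker Red CMTPX staining in the red channel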
settings: BODIPY lipid droplet fluorescence, 18-24 h, cells fed with added oleic acid; measured here: cell count max response
The whole screen tested about 320,000 compounds, of which about 2,100 (0.66%) were called active. Not shown: some 53% with an inconclusive outcome. Shown is part of a subset that was picked to be rich in actives.
Report the figure in % without appending any unit label.

The compound Cn1cc(/C=C/c2cc[n+](C)cc2)c2cc(F)ccc21 showed cell number change equal to 5.37

The recorded cell number change for entry O=C(CC1Sc2ccccc2NC1=O)NCc1ccccc1 (stereo unspecified) equals 0.893

The compound listed as Cc1cc(C)c(C#N)c(OCC(=O)Nc2ccccc2)n1 shows cell number change equal to 11.6

Consider COCCCNC(=O)COc1cc2c(c3oc(=O)c(C)c(C)c13)CCC(C)(C)O2 . Its measured cell number change is 14.5

The recorded cell number change for entry CC(=O)c1nn(-c2cccc(Br)c2)cc1C(=O)c1ccccc1 equals -13.8

cell number change for Cc1noc(C)c1COc1ccccc1C(=O)N(C)Cc1ccc(F)cc1 is -12.5

In plain terms, CCCCC1=CC2=CC(=O)C(C)(OC(=O)CC)C(=O)C2=CN1CCCCO (stereo unspecified) has a documented cell number change of 9.55

// Cc1nc(C(C)NC(=O)CCc2nnc(-c3ccsc3)o2)cs1 (stereo unspecified) : cell number change value = -5.47

// cell number change lookup, compound = O=C(Nc1nccs1)c1ccc(-c2ccc(F)cc2)o1 , result: 0.674

The compound COc1cccc(C(=O)NC23CC4CC(CC(C4)C2)C3)c1 showed cell number change equal to 26.5

For this compound ( CCOc1ccc(NC(=O)COc2ccc3c(c2)CCC3)cc1OC ), measured cell number change is -12.3

Form field cell number change, entry O=c1oc2ccccc2c(N2CCCCC2)c1CN1CCCC1 : 20.3

The recorded cell number change for entry O=C(O)Cc1sc(Nc2cccc3ccccc23)nc1-c1ccc(F)cc1 equals 12.9

Short answer for CC(C)(C)NC(=O)CN(C(=O)C(=O)Nc1ccc2c(c1)OCCO2)C(C)(C)C : cell number change was -1.34

Quick note, cell number change for O=C(Nc1ccc(F)cc1)/C(=C1/CCCCCN1)[N+](=O)[O-] landed at 18.2

Record COc1ccc(NC(=O)N2CCCC(C(=O)NC(C)C)C2)cc1 (stereo unspecified) , field cell number change: 10.2

Just so you know, measured cell number change for O=C(CN1CCN(Cc2ccccc2)CC1)N1CCN(c2ccccc2)CC1 came out at 9.09

Given item Cc1c(C(=O)OC(C)C)nnn1-c1nonc1N , the value recorded as its cell number change is 7.24

cell number change reading for COCCNC(=O)C(OC(=O)c1cc2oc(C)cc2n1C)C(C)C (stereo unspecified) : 9.13

Recorded result, COc1ccc(NC(=O)C2CCCN(C(=O)Nc3ccc(OC)cc3)C2)cc1 (stereo unspecified) , cell number change: 16.7

The value of cell number change measured for the compound COc1cccc(N2CCN(C(C)C(=O)NC34CC5CC(CC(C5)C3)C4)CC2)c1 (stereo unspecified) turned out to be -27.6

Entry COc1ccc(NC(=O)N2CCCC(C(=O)Nc3ccccc3OC)C2)cc1 (stereo unspecified) — recorded cell number change = 0.427

// recorded cell number change for COC(=O)Cn1c(=NC(=O)c2cc(OC)cc(OC)c2)sc2cc(OC)ccc21 : -0.279

Please fill in: cell number change reported for OCCN(Cc1ccccc1)Cc1ccccc1F = -24.2

cell number change reading for O=C(NNC(=O)c1ccc(Br)s1)NC1CCCCC1 : 8.62

Looking up OCCN(Cc1ccccc1)CC1CC2C=CC1C2 (stereo unspecified) , I found its cell number change recorded as 0.638

COc1ccc(OCC(=O)Nc2ccc(S(=O)(=O)N3CCN(C)CC3)cc2)cc1 yielded cell number change of -8.24

Lookup result for CC1CCCN(CCC(=O)c2ccc(Br)cc2)C1 (stereo unspecified) ; measured cell number change: -9.39

# cell number change of COc1ccc(-c2nn(CCC#N)cc2C=C(C#N)C#N)cc1 = 16.7

The reported value for Cc1cc2c(cc(C(=O)OC(C(=O)NC3CCCCC3)C(C)C)n2C)o1 (stereo unspecified) in terms of cell number change is -21.3

O=C(N/N=C\c1cccnc1)C1c2ccccc2Oc2ccccc21 has a reported cell number change of -0.813

Lab book: cell number change of O=C(Nc1nccs1)c1ccc(-c2ccc(F)c(Cl)c2)o1 noted as -11.8

Per the record, COc1ccc(C(=O)CCN2CCCC(C)C2)cc1 (stereo unspecified) has cell number change of -14.2

cell number change measured on Cc1cccc(N2CC(C(=O)Nc3nnc(SCc4cccnc4)s3)CC2=O)c1 (stereo unspecified) = 0.463

Looking up CCOc1ccccc1NC(=O)CSc1nnc(CCC(=O)Nc2ccccc2F)n1C , I found its cell number change recorded as -0.293

response.value for Cc1cccc(-n2cc(-c3ccccc3)c3c(N4CCOCC4)ncnc32)c1 (field: cell number change) = 18.2

Sure, the documented cell number change for CC(=O)c1nnn(-c2ccccc2C#N)c1C is 25.6

Notebook: CCCOc1cccc(C2/C(=C(\O)c3ccc4c(c3)OCCO4)C(=O)C(=O)N2CCCn2ccnc2)c1 (stereo unspecified) , cell number change read as -8.73

Per the records, this compound ( CCCn1c(=O)c2sccc2n2c(CCCC(=O)NC3CCN(Cc4ccccc4)CC3)nnc12 ) has cell number change equal to 6.65

Kindly note the recorded cell number change for COc1ccc(S(=O)(=O)N2CCCCC2)cc1NC(=O)CSc1nccn1C , which is -6.22

The compound identified as O=C(O)Cc1sc(Nc2cccc3ccccc23)nc1-c1ccccc1 registered its cell number change at 25.4

// field: cell number change; key: CC(=O)N(C)c1nc(N)n(-c2ccccc2)n1 ; value = 17.4

For this compound ( COc1ccc(NC(=O)CCN2CCCC(C)C2)cc1 (stereo unspecified) ), measured cell number change is 17

Per the record, Cc1nnsc1C(=O)N1CCN(c2ccc(F)cc2)CC1 has cell number change of 6.97

cell number change recorded for this compound, COC(=O)/C(C#N)=C\c1c(OC)[nH]c2ccccc12 , is -7.03

Consider COC(=O)C1=CN(c2cccc(C)c2)C=C(C(=O)OC)C1c1cc(OC)c(O)c([N+](=O)[O-])c1 . Its measured cell number change is -3.94
